target: PAR4 (Homo sapiens (Human), UniProt Q96RI0)
Sequence (Q96RI0 18-385): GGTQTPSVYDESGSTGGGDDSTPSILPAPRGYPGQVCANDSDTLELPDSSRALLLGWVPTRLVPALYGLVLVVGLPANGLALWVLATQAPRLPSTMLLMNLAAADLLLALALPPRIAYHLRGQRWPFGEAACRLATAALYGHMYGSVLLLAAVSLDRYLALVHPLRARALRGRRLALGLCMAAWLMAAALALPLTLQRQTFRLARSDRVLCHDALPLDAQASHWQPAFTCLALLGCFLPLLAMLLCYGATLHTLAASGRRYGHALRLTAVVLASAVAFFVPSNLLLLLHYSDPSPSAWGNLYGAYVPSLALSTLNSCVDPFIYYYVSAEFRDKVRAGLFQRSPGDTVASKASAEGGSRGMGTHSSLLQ
assay comment: FLIPR assay in PAR4-expressing HEK293 cells (calcium mobilization)
Format: cell-based
run conditions: PAR4 antagonist activity, FLIPR assay as described in Example A
pIC50: −log10 of the molar value.
readout type: pIC50

Worked examples follow.
| molecule | quantitative result |
| --- | --- |
| COCCN(C)C(=O)c1ccc(-c2cccc(COc3cc(OC)cc4oc(-c5cn6nc(OC)sc6n5)cc34)c2)cn1 | 8.83 |
| COc1cc(OCc2cccc(-c3ccnc(F)c3)c2)c2cc(-c3cn4nc(OC)sc4n3)oc2c1 | 9.16 |
| COc1cc(OCc2cccc(-c3cnsc3)c2)c2cc(-c3cn4nc(OC)sc4n3)oc2c1 | 8.99 |
| COc1cc(OCc2cccc(-c3ccc(C)nc3F)c2)c2cc(-c3cn4nc(OC)sc4n3)oc2c1 | 9.28 |
| COc1cc(OCc2cccc(-c3ccc(C(C)OC4CCCCO4)cn3)c2)c2cc(-c3cn4nc(OC)sc4n3)oc2c1 (stereo not shown) | 9.25 |

A: COc1cc(OCc2cccc(-c3ccc(Cl)nc3)c2)c2cc(-c3cn4nc(OC)sc4n3)oc2c1
B: COc1cc(OCc2cccc(C3=CCCCC3)c2)c2cc(-c3cn4nc(OC)sc4n3)oc2c1
# min-compare on pIC50 between A and B # respond with the chosen item's label
B
